- Tested on: SK-MEL-5 melanoma
- Protocol Text: NCI tumour cell line growth inhibition, 48 h
Readout Type: TGI (µM)
Just the number in µM, nothing appended.

-- ask Provide TGI, recorded with SK-MEL-5 melanoma, of O=C(CCCc1c[nH]c2ccccc12)NC1CC(=O)c2c(Br)sc(Br)c21 (centres undefined)
-- reply 30

-- ask Give measured TGI for "Cc1cc(C)c(S(=O)(=O)N[C@@H](/C=C(\Br)CO)C(C)C)c(C)c1" (SK-MEL-5 melanoma).
-- reply 30.5

###

- Tested on: SK-MEL-2 melanoma
- Protocol Text: NCI tumour cell line growth inhibition, 48 h
Could you please report measured GI50 for the items listed next?

-- ask Give the reported value of GI50 for this record: COc1cc2c(cc1OC)C(=O)C(Br)CC2 (stereo not drawn)
-- reply 3.6 µM

-- ask Write down GI50 measured for item "N#C/C(=C\c1c(-c2ccccc2)[nH]c2ccccc12)C(=O)c1ccc(Cl)cc1"
-- reply 7.09 µM

-- ask // fetch GI50 given entry "O=c1c(Cl)nnc2sc3ccccc3n12"
-- reply > 100 µM

###

Hi there, I'd appreciate the recorded TGI for every entry that follows.
- Test system: OVCAR-3 ovarian
- Protocol Text: NCI tumour cell line growth inhibition, 48 h
The reply should contain only the number, in µM.

-- ask For the compound "CC(=O)Oc1ccccc1[C@H]1CC(=O)C[C@H](c2ccccc2OC(C)=O)C12C(=O)c1ccccc1C2=O" , give its reported TGI.
-- reply 89.2

-- ask Recall and state the measured TGI for "O=C1c2cc3c(cc2-c2c1c1cc(Cl)c(Cl)cc1c(=O)n2CCCn1ccnc1)OCO3" .
-- reply 18.8

-- ask Give TGI for COc1cc2c(cc1OC)C(=O)C(Br)CC2 (configuration not stated)
-- reply 6.88

-- ask Give a short answer stating reported TGI for "CCOC(=O)c1cnc(SCc2ccc(Cl)c(Cl)c2)nc1N1CC1" .
-- reply 7

-- ask State its TGI: "O=C1/C(=C\c2ccc([N+](=O)[O-])cc2)Sc2scc(-c3ccc(O)c(O)c3)[n+]21"
-- reply 9.79

-- ask Tell us which TGI value is on record for "COc1ccccc1/C=C1\Sc2scc(-c3cccc([N+](=O)[O-])c3)[n+]2C1=O"
-- reply 26.7

###

- Tested on: ACHN renal
- Protocol Text: NCI tumour cell line growth inhibition, 48 h
Exercise: state measured GI50 for each of the molecules provided.

-- ask Determine its reported GI50: "COc1cc2cc(Oc3ccc(NC(=O)Nc4ccc(F)c(C(F)(F)F)c4)cc3)c(C)nc2cc1OCCN1CCCCC1"
-- reply 1.65 µM

-- ask Return reported GI50. Input molecule: "O=[N+]([O-])c1ccc(N/N=C\c2cc(Cl)ccc2O)nc1"
-- reply 0.696 µM

-- ask Return value of GI50 for input CCCCCCCCCCCCCCCCCCNC(=O)[C@H]1CSC(c2ccc(OC)c(F)c2)N1 (stereo not given in full) , no commentary.
-- reply > 36.8 µM

-- ask Give the reported value of GI50 for this record: "C[C@@H](c1ccc2nccn2c1)n1nnc2ncc(-c3cnn(C)c3)nc21"
-- reply > 100 µM

-- ask Assign GI50 to the following record: "COc1cccc(NC(=O)c2sc3nc4c(cc3c2N)CCCC4)c1"
-- reply 0.953 µM

-- ask Identify measured GI50 associated with CCOC(=O)CCC(NC(=O)c1ccc(N=Cc2nc3cc(C(F)(F)F)ccc3nc2-c2ccccc2)cc1)C(=O)OCC (stereo not given)
-- reply 46.3 µM

-- ask Provide GI50 value for the following molecule: O=C(CCCc1c[nH]c2ccccc12)NC1CC(=O)c2c(Br)sc(Br)c21 (stereo not given)
-- reply 16.5 µM

-- ask Give the reported GI50 for this molecule. COc1cc2c(cc1OC)C(=O)C(Br)CC2 (stereo not given)
-- reply 1.86 µM

-- ask Name the recorded GI50 of the molecule listed here: "COc1cc(-c2cc(C(=O)N3CCN(C(=O)c4ccccc4NCc4ccco4)CC3)nc3cc(-c4ccccc4)nn23)cc(OC)c1OC"
-- reply 6.97 µM

-- ask Specify GI50 for "COc1ccc(/C(=C/c2cc(OC)c(OC)c(OC)c2)[N+](=O)[O-])cc1" and stop.
-- reply 1.54 µM

-- ask Report GI50 for "N#C/C(=C\c1c(-c2ccccc2)[nH]c2ccccc12)C(=O)c1ccc(Cl)cc1"
-- reply 6.69 µM

-- ask Name the recorded GI50 of the item "COc1cc2cc(Oc3ccc(NC(=O)Nc4cccc(C(F)(F)F)c4)cc3)c(C)nc2cc1OCCN1CCCCC1" in your answer.
-- reply 1.69 µM

-- ask For the molecule "CC(=O)[CH-]C(=O)c1ccccc1.CC(=O)[CH-]C(=O)c1ccccc1.CCN(CC)CC[O-].CCN(CC)CC[O-].Cl.[Ti+4]" , give its measured GI50 value.
-- reply 39.5 µM

-- ask Supply reported GI50 belonging to this molecule: "O/N=C1\CCc2cc(-c3nc(C4CCNCC4)[nH]c3-c3ccncc3)ccc21"
-- reply > 25 µM

-- ask Identify measured GI50 corresponding to "COc1ccc(/C=C2\CN(C(=O)CCN3CCC(=NO)CC3)C/C(=C\c3ccc(OC)cc3)C2=O)cc1"
-- reply 1.95 µM

###

- Test system: SR leukemia
- Protocol Text: NCI tumour cell line growth inhibition, 48 h
Readout Type: TGI

-- ask Tell me its TGI given Oc1c(C2=NNC(c3cccs3)C2)ccc2ccccc12 (centres undefined) as the entry.
-- reply 29.3 µM

-- ask Name the recorded TGI of the item Nc1cccc2c1C(=O)N(C1CCC(=O)NC1=O)C2=O (centres undefined) in your answer.
-- reply > 100 µM

-- ask Name the recorded TGI of the molecule listed here: "O=S(=O)(c1cc(Cl)ccc1Cl)N1CCN(c2ccc(Cl)c(Cl)c2)CC1"
-- reply > 100 µM

-- ask // Input: "CC1=COC(=O)c2ccccc2N1" . Output its TGI only.
-- reply > 100 µM

-- ask Return TGI for the following molecule: "COc1cc(-c2cc(C(=O)N3CCN(C(=O)c4ccccc4NCc4ccco4)CC3)nc3cc(-c4ccccc4)nn23)cc(OC)c1OC"
-- reply > 100 µM

-- ask Quote TGI reported for "CC1=C2C(=O)O[C@@H](c3ccoc3)[C@]2(C)CCC1=O" please.
-- reply > 100 µM

-- ask Find the measured TGI of "Cc1c(C(=O)CSc2nc3ccc([N+](=O)[O-])cc3[nH]2)c(=O)n(-c2ccccc2)n1C" and report it.
-- reply > 100 µM

-- ask // Input: CC(CC(=O)CO[C@H]1[C@H](O)[C@@H](O)[C@@H](O)[C@@H]2NC(=O)c3c(cc4c(c3O)OCO4)[C@H]21)OC1OC(CO)C(O)C(O)C1O (some centres undefined) . Output its TGI only.
-- reply 2.22 µM

-- ask Read off the recorded TGI for CCOc1ccc(N2C(=O)C3c4[nH]c5ccccc5c4C4CCC(C(C)(C)C)CC4C3C2=O)cc1 (centres undefined)
-- reply > 100 µM

-- ask For the molecule "CC1(C)N=C(N)N=C(N)N1c1cccc(/C=C/C=C/c2cccc([N+](=O)[O-])c2)c1" , report TGI.
-- reply 29.2 µM

-- ask Assign TGI to the following record: COc1cc(C2C(Cl)C(=O)N2n2cnc3ccccc3c2=O)cc(OC)c1OC (centres undefined)
-- reply > 100 µM

-- ask Give TGI for "COc1ccc(-c2cc(-c3ccc(Nc4nc(Nc5ccc(Cl)cc5)nc(Nc5ccc(Cl)cc5)n4)cc3)nc(N)c2C#N)cc1"
-- reply 3.29 µM

-- ask Supply TGI value. Item: "COc1ccc2c(c1)c1nn(CCN(C)C)c3ccc4c(=O)n(CCN(C)C)c(=O)n2c4c13"
-- reply 0.0522 µM

-- ask Answer with the recorded TGI for the molecule listed here: "Cc1cc(C)c(S(=O)(=O)N[C@@H](/C=C(\Br)CO)C(C)C)c(C)c1"
-- reply 68.8 µM

-- ask Given COC1C=C(Nc2cccc(Cl)c2)C(=O)C1 (centres undefined) , respond with its TGI.
-- reply > 100 µM

-- ask For the molecule OC1c2ccccc2[C@@H]2[C@H]1[C@@H](c1ccccc1)C1(Cc3ccccc3C1O)[C@H]2c1ccccc1 (some centres undefined) , report TGI.
-- reply 4.49 µM

-- ask Give a short answer stating reported TGI for "Cn1cc(-c2ccc(=O)n(Cc3cccc(-c4ncc(OCCN5CCOCC5)cn4)c3)n2)cn1" .
-- reply > 100 µM

-- ask Look up and report measured TGI for this entry: "CCOc1ccc2ccccc2c1NC1=NCCO1"
-- reply > 100 µM

-- ask Answer with the recorded TGI of "CCOC(=O)c1ncoc1[C@H]1COC(C)(C)O1" only.
-- reply > 100 µM

###

- Tested on: BT-549 breast
- Protocol Text: NCI tumour cell line growth inhibition, 48 h; in the data active = GI50 below about 0.43 µM; inactive = the rest
Outcome (select one): active, inactive

-- ask Recorded call for "COc1ccccc1C(=O)/C=C/c1cc2cccc(OC)c2[nH]c1=O" ?
-- reply active

-- ask For COc1cc2c(cc1OC)C(=O)C(Br)CC2 (stereo unspecified) , which call appears in the assay record?
-- reply inactive

-- ask Look up the recorded call for "Cn1cc(-c2ccc(=O)n(Cc3cccc(-c4ncc(OCCN5CCOCC5)cn4)c3)n2)cn1" in this test.
-- reply inactive

-- ask Status in this test for "O=C1/C(=C\c2ccc(Cl)cc2)CN(C(=S)Nc2ccccc2)C/C1=C\c1ccc(Cl)cc1" ?
-- reply inactive

-- ask Would you mind telling me which call this test gave "COC(=O)[C@]12CC[C@@H](C)[C@H](C)[C@@H]1C1=CC[C@@H]3[C@@]4(C)CC(=O)[C@H](O)[C@@]5(C)COC(=C45)C[C@@]3(C)[C@]1(C)CC2" ?
-- reply inactive

-- ask Hey, what did the test say about "COc1ccc(/C=C2\CN(C(=O)CCN3CCC(=NO)CC3)C/C(=C\c3ccc(OC)cc3)C2=O)cc1" ?
-- reply inactive
